Ok so here's the combined literature set: Ki for UniProt P62942.

I would be grateful if you could provide Ki for each of the following entries.
1. Cc1ccc(S(=O)(=O)N2CCCCC2C(=O)SCCCCc2ccccc2)cc1 (stereo not shown)
2. CCCc1ccc(CCC)n1-c1cccc([C@@H](CCN2CCOCC2)OC(=O)[C@@H]2CCCCN2C(=O)C(=O)[C@@H]2CCCC[C@H]2C)c1

[A]
["1 to 50 nM", "94 nM"]

Required: Ki, one value per compound below.
1. COc1ccccc1C(=O)C(=O)N1CCCC[C@H]1C(=O)OCc1ccccc1
2. O=C(C(=O)N1CCCC[C@H]1C(=O)OCCCc1ccccc1)C1=CCCCC1

[A]
1: 17000 nM; 2: 780 nM

###

Recorded pKi for compounds tested on Peptidyl-prolyl cis-trans isomerase FKBP1A (Homo sapiens, UniProt P62942), drawn from a number of studies.
Give bare numbers, as −log10 of the molar value.

For the 4 compounds below, give their pKi values.
1. COC/C=C(\c1cncc([C@@H](OC(=O)[C@@H]2CCCCN2C(=O)C(=O)c2ccco2)/C(C)=C/[C@H]2CC[C@H](O)CC2)c1)C1CCCCC1
2. CCOCc1cc2ccccc2n1-c1cccc([C@@H](CCN2CCOCC2)OC(=O)[C@@H]2CCCCN2C(=O)C(=O)C(C)(C)C(C)C)c1
3. CC(C)Oc1cccc(C(=O)C(=O)N2CCCC[C@H]2C(=O)OCCCCc2ccccc2)c1
4. C=CCOC(=O)[C@@H]1CCCCN1C(=O)C(=O)OC

[A]
[6.92, 7.80, 7.00, 3.72]

Each compound below has a recorded value; state its pKi.
1. CO[C@@H](C[C@@H]1CC[C@@H](C)[C@](O)(C(=O)C(=O)N2CCCC[C@H]2C(=O)O[C@@H](C/C=C(\C)C=O)[C@H](C)C[C@H]2CC[C@H](O)CC2)O1)/C(C)=C/C=C/C=C/[C@@H](C)C[C@@H](C)C(=O)CO
2. COc1cc(C(=O)C(=O)N2CCCC[C@H]2C(=O)O[C@H](/C(C)=C/[C@H]2CC[C@H](O)CC2)c2cncc(-c3c(OC)cccc3OC)c2)cc(OC)c1OC

[A]
7.92
8.01

###

Kindly find below Ki information for Peptidyl-prolyl cis-trans isomerase FKBP1A (Homo sapiens, UniProt P62942) taken from the literature.
Give bare numbers, in nM.

Known results for compounds:
compound=CCC/C=C(\c1cncc([C@@H](OC(=O)[C@@H]2CCCCN2C(=O)C(=O)c2ccco2)/C(C)=C/[C@H]2CC[C@H](O)CC2)c1)C1CCCCC1 test_target="Peptidyl-prolyl cis-trans isomerase FKBP1A (Homo sapiens, UniProt P62942)" readout_value=230
compound=CCC/C=C(\c1cccnc1)c1cccc([C@H](CCN2CCOCC2)OC(=O)[C@@H]2CCCCN2C(=O)C(=O)c2cc(OC)c(OC)c(OC)c2)c1 test_target="Peptidyl-prolyl cis-trans isomerase FKBP1A (Homo sapiens, UniProt P62942)" readout_value=130
compound=COC(=O)C(=O)N1CCC[C@H]1C(=O)OC(C)(C)C test_target="Peptidyl-prolyl cis-trans isomerase FKBP1A (Homo sapiens, UniProt P62942)" readout_value=600000
compound=C=CCC/C=C(/c1cccnc1)c1ccc([C@@H](CCN2CCOCC2)OC(=O)[C@@H]2CCCCN2C(=O)C(=O)C2(C)CCCCC2)s1 test_target="Peptidyl-prolyl cis-trans isomerase FKBP1A (Homo sapiens, UniProt P62942)" readout_value=1
compound=COc1cc(C(=O)C(=O)N2CCCC[C@H]2C(=O)OCCc2ccc3ccccc3c2)cc(OC)c1OC test_target="Peptidyl-prolyl cis-trans isomerase FKBP1A (Homo sapiens, UniProt P62942)" readout_value=220
compound=COc1cc(C(=O)C(=O)N2CCCC[C@H]2C(=O)O[C@H](CCCc2ccccc2)c2cccc(/C(=C\CCc3ccccc3)c3cccnc3)c2)cc(OC)c1OC test_target="Peptidyl-prolyl cis-trans isomerase FKBP1A (Homo sapiens, UniProt P62942)" readout_value=24
compound=O=C(C(=O)N1CCCC[C@H]1C(=O)OCCCCc1ccccc1)C1CCOCC1 test_target="Peptidyl-prolyl cis-trans isomerase FKBP1A (Homo sapiens, UniProt P62942)" readout_value=440
compound=C[C@H](NC(=O)/C=C/c1ccc2c(c1)OCO2)C(=O)OCc1ccccc1 test_target="Peptidyl-prolyl cis-trans isomerase FKBP1A (Homo sapiens, UniProt P62942)" readout_value=60000
compound=CCCc1ccc(CCC)n1-c1cccc([C@@H](CCN2CCOCC2)OC(=O)[C@@H]2CCCCN2C(=O)C(=O)[C@@H]2C[C@H](C(C)(C)OC)CC=C2C)c1 test_target="Peptidyl-prolyl cis-trans isomerase FKBP1A (Homo sapiens, UniProt P62942)" readout_value=7600
compound=CCOCc1cccc(COCC)c1-c1cncc([C@H](CCN2CCOCC2)OC(=O)[C@@H]2CCCCN2C(=O)C(=O)C2(C)CCCCC2)c1 test_target="Peptidyl-prolyl cis-trans isomerase FKBP1A (Homo sapiens, UniProt P62942)" readout_value=400

For each of the items listed, what is its Ki?
1. C/C1=C\C[C@@H]([C@H](C)C[C@H]2CC[C@H](O)CC2)OC(=O)[C@@H]2CCCCN2C(=O)C(=O)[C@]2(O)O[C@@H](CC[C@H]2C)C[C@H](O)/C(C)=C/C=C/C=C/[C@@H](C)C[C@@H](C)C(=O)C[C@@H]1O
2. CC(C)(C)c1ccc(C(=O)C(=O)N2CCCC[C@H]2C(=O)OCCCCc2ccccc2)cc1

[A]
1. 7.7
2. 600

Please go through the list and note Ki for each compound.
1. CCC/C(=C/COC)c1cncc([C@@H](CCN2CCOCC2)OC(=O)[C@@H]2CCCCN2C(=O)C(=O)C(C)(C)C(C)C)c1
2. CCOCc1cccc(COCC)c1-c1cncc([C@H](CCN2CCOCC2)OC(=O)[C@@H]2CCCCN2C(=O)C(=O)CC(C)C)c1
3. COc1cc(C(=O)C(=O)N2CCCC[C@H]2C(=O)O[C@H](CCCc2ccccc2)c2cncc(-c3c(OC)cccc3OC)c2)cc(OC)c1OC

[A]
[61, 2100, 0.5]

Batch: Ki for all items listed.
1. COCc1cccc(COC)c1-c1cncc([C@@H](OC(=O)[C@@H]2CCCCN2C(=O)C(=O)c2ccco2)/C(C)=C/[C@H]2CC[C@H](O)CC2)c1
2. CCC/C(=C/COC)c1cncc(C(CCN2CCOCC2)OC(=O)[C@@H]2CCCCN2C(=O)C(=O)[C@@H]2C[C@H](OCC)CC[C@H]2C)c1 (stereo partly shown)
3. CCC/C=C(\c1cncc([C@@H](OC(=O)[C@@H]2CCCCN2C(=O)C(=O)c2ccc(F)cc2)/C(C)=C/[C@H]2CC[C@H](O)CC2)c1)C1CCCCC1

[A]
1. 500
2. 1100
3. 2100

State the recorded Ki for every item in the following list.
1. O=C(OCc1ccccc1)[C@@H]1CCCCN1C(=O)/C=C/c1cccnc1
2. COc1cc(C(=O)C(=O)N2CCCC[C@H]2C(=O)OCCCc2ccccc2)cc(OC)c1OC
3. CCC/C=C(\c1cccnc1)c1cccc([C@@H](CCN2CCOCC2)OC(=O)[C@@H]2CCCCN2C(=O)C(=O)c2cc(OC)c(OC)c(OC)c2)c1
4. C=CCC/C=C(/c1cccnc1)c1ccc(C(CCN2CCOCC2)OC(=O)[C@@H]2CCCCN2C(=O)C(=O)C(C)(C)C(C)C)s1 (stereo partly shown)
5. CCC/C=C(/c1ccc(C)cc1)c1cncc([C@H](OC(=O)[C@@H]2CCCCN2C(=O)C(=O)c2ccc(F)cc2)/C(C)=C/[C@H]2CC[C@H](O)CC2)c1
6. COc1cc(C(F)(F)C(=O)N2CCC[C@H]2COC(=O)N(CCCCc2cccnc2)Cc2ccccc2)cc(OC)c1OC
7. CCC(C)(C)C(=O)C(=O)N1CSCC1C(=O)OCCCc1ccccc1 (stereo not shown)

[A]
1: 25000; 2: 110; 3: 27; 4: 9; 5: 45; 6: 686; 7: 215
